test: qHTS assay to identify small molecule agonists of the estrogen receptor alpha (ER-alpha) signaling pathway in the presence of an antagonist - cell viability counter screen (AID 1259386); conditions: VM7Luc4E2 viability, CellTiter-Fluor fluorescence, 22 h; series mostly up to 92.4 µM;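 also: cells exposed to compounds for 22 h at 37 °C before the viability read; nearly all actives have a fitted effect of over 30% in size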
Records with an inconclusive call do not appear. The source made the active and inactive calls. Calls follow the shape of the dose curve; as a rule, active = well fitted cell-killing curve with a large enough effect in the repeat runs; inconclusive = weak or mixed curves, or effect the other way; inactive = no such curve, though single readings can be large or run the other way.
Outcome (select one): label 1 = active, label 0 = inactive

Tell me the recorded outcome of this test for CC(C)(C)CC(C)(C)c1ccc(OCCO)cc1 .
label 1

Tell me the recorded outcome of this test for CN(C)CCOC1=Cc2ccccc2Sc2ccc(Cl)cc21 .
label 0

Tell me the recorded outcome of this test for CCOC(=O)OCC .
label 0

Tell me the recorded outcome of this test for O=S1OCCO1 .
label 0

Tell me the recorded outcome of this test for CC(=O)[C@H]1CC[C@H]2[C@@H]3C=CC4=CC(=O)CC[C@@]4(C)[C@@H]3CC[C@]12C .
label 0

Tell me the recorded outcome of this test for CCCCCCCC/C=C\CCCCCCCC(=O)OC(CO)CO .
label 0

Tell me the recorded outcome of this test for CCCCCCCCCCCC[N+](C)(C)CC(=O)[O-] .
label 0

Tell me the recorded outcome of this test for CC(C)=CC=O .
label 0

Tell me the recorded outcome of this test for O=C1OCCN1/N=C/c1ccc([N+](=O)[O-])o1 .
label 0

Tell me the recorded outcome of this test for Oc1ccc(Nc2ccccc2)cc1 .
label 0

Tell me the recorded outcome of this test for CCCCCCCCCCOS(=O)(=O)O .
label 0

Tell me the recorded outcome of this test for CCCCCCCCCCCC(=O)[O][Sn]([CH2]CCC)([CH2]CCC)[O]C(=O)CCCCCCCCCCC .
label 0

Tell me the recorded outcome of this test for CC1=CC(O)CC(C)(C)C1 (stereo not drawn) .
label 0

====

assay: qHTS assay to identify small molecule antagonists of the estrogen related receptor (ERR) signaling pathway from Tox21 library (AID 1224848); conditions: ERR reporter cell line, luciferase antagonist mode, 18 h; series mostly up to 92.4 µM; also: nearly all actives have a fitted effect of over 50% in size
Records with an inconclusive call do not appear. Active and inactive are the calls of the source. Calls come from the whole dose curve; as a rule, active = well fitted inhibition curve with a large enough effect in the repeat runs; inconclusive = weak or mixed curves; inactive = no such curve, though single readings can be large or run the other way.
Outcome (select one): label 1 (active), label 0 (inactive)

Reference set, count: 5
Tell me the recorded outcome of this test for c1cnc2c(n1)CCCC2 .
label 0

Tell me the recorded outcome of this test for Oc1cc(O)c(Cl)cc1Cl .
label 0

Tell me the recorded outcome of this test for CN(C)C(=O)Nc1ccc(Oc2ccc(Cl)cc2)cc1 .
label 1

Tell me the recorded outcome of this test for CC(C)(C)C(=O)O .
label 0

Tell me the recorded outcome of this test for CO[C@@]12[C@H](COC(N)=O)C3=C(C(=O)C(C)=C(N)C3=O)N1C[C@@H]1N[C@@H]12 .
label 1

New cases:
Tell me the recorded outcome of this test for CC1(C)O[C@@H]2C[C@H]3[C@@H]4CCC5=CC(=O)C=C[C@]5(C)[C@H]4[C@@H](O)C[C@]3(C)[C@]2(C(=O)CO)O1 .
label 0

Tell me the recorded outcome of this test for CSc1ccc(Oc2ccc(S(N)(=O)=O)cc2CN(C)C)cc1C .
label 1

Tell me the recorded outcome of this test for O=[N+]([O-])c1cccc(S(=O)(=O)NCCNS(=O)(=O)c2cccc([N+](=O)[O-])c2)c1 .
label 0

Tell me the recorded outcome of this test for CC1CC(O)CC(C)(C)C1 (stereo unspecified) .
label 0

Tell me the recorded outcome of this test for CC(=O)CC(c1ccc([N+](=O)[O-])cc1)c1c(O)c2ccccc2oc1=O (stereo unspecified) .
label 0

Tell me the recorded outcome of this test for O=Cc1c(Cl)cccc1Cl .
label 0

====

test: qHTS assay to identify small molecule agonists of the vitamin D receptor (VDR) signaling pathway - cell viability counter screen (AID 743224); conditions: VDR-bla HEK293T viability, CellTiter-Glo luminescence, 16 h; series mostly up to 62.6 µM; also: nearly all actives have a fitted effect of over 50% in size
Records with an inconclusive call do not appear. Activity calls are given as the source filed them. Calls follow the shape of the dose curve; as a rule, active = well fitted cell-killing curve with a large enough effect in the repeat runs; inconclusive = weak or mixed curves, or effect the other way; inactive = no such curve, though single readings can be large or run the other way.
Outcome (select one): 1 (active), -1 (inactive)

Reference set, count: 8
Tell me the recorded outcome of this test for CC1=C(C=O)C(C)(C)CCC1 .
-1

Tell me the recorded outcome of this test for Cc1ccc(S(=O)(=O)NC2CCCCC2)cc1 .
-1

Tell me the recorded outcome of this test for CCn1cc(C(=O)O)c(=O)c2cc(F)c(N3CCNCC3)nc21 .
-1

Tell me the recorded outcome of this test for CCCCC(=O)O[C@]1(C(=O)CO)CC[C@H]2[C@@H]3CCC4=CC(=O)CC[C@]4(C)[C@H]3[C@@H](O)C[C@@]21C .
-1

Tell me the recorded outcome of this test for Cc1ccnc2ccccc12 .
-1

Tell me the recorded outcome of this test for CCC(=O)OC/C=C/c1ccccc1 .
-1

Tell me the recorded outcome of this test for CO[C@H]1O[C@H](CO)[C@@H](O)[C@H](O)[C@H]1O .
-1

Tell me the recorded outcome of this test for Nc1ccc(S(=O)(=O)O)cc1 .
-1

New cases:
Tell me the recorded outcome of this test for O=[N+]([O-])c1cccc(S(=O)(=O)NCCNS(=O)(=O)c2cccc([N+](=O)[O-])c2)c1 .
-1

Tell me the recorded outcome of this test for CC(C)CCCC(=O)O .
-1

Tell me the recorded outcome of this test for CC(C)=CC=O .
-1

Tell me the recorded outcome of this test for CCCOC(=O)c1ccc(C(=O)OCCC)nc1 .
-1

Tell me the recorded outcome of this test for CC(=O)OCC(=O)[C@@]12OC(C)(C)O[C@@H]1C[C@H]1[C@@H]3C[C@H](F)C4=CC(=O)C=C[C@]4(C)[C@@]3(F)[C@@H](O)C[C@@]12C .
-1

Tell me the recorded outcome of this test for CC(CCc1ccc2c(c1)OCO2)NN (configuration not stated) .
-1

Tell me the recorded outcome of this test for Cc1cc(OI)c(C(C)C)cc1-c1cc(C(C)C)c(OI)cc1C .
-1

Tell me the recorded outcome of this test for CN(C)CCOC1=Cc2ccccc2Sc2ccc(Cl)cc21 .
-1

Tell me the recorded outcome of this test for COC(=O)CC(=O)C(C)(C)C .
-1

Tell me the recorded outcome of this test for CC1=NN(c2ccc(C(=O)O)cc2)C(=O)C1 .
-1

Tell me the recorded outcome of this test for CCCCOC(=O)CCS .
-1

Tell me the recorded outcome of this test for O=C(CCCN1CCC(O)(c2ccc(Br)cc2)CC1)c1ccc(F)cc1 .
-1

Tell me the recorded outcome of this test for CC1(C)C2=CCCC(C)(C)[C@]23CC[C@H]1C3 .
-1

Tell me the recorded outcome of this test for CCOC(=O)/C=C/C(=O)O .
-1

====

test: qHTS assay to identify small molecule agonists of the retinoic acid receptor (RAR) signaling pathway (AID 1159553); conditions: C3RL4 RARE luciferase reporter, agonist, 6 h; series mostly up to 73.3 µM
Inconclusive results are not listed. Activity calls are given as the source filed them. Calls come from the whole dose curve; as a rule, active = well fitted activation curve with a large enough effect in the repeat runs; inconclusive = weak or mixed curves, or effect the other way; inactive = no such curve, though single readings can be large or run the other way.
Outcome (select one): active, inactive

Reference set, count: 4
Tell me the recorded outcome of this test for O=C(/C=C/c1ccccc1)OCCCc1ccccc1 .
active

Tell me the recorded outcome of this test for O=C(Nc1ccccc1)Nc1ccccc1 .
active

Tell me the recorded outcome of this test for Fc1c(F)c(F)c(Br)c(F)c1F .
inactive

Tell me the recorded outcome of this test for CC(=O)N(c1onc(C)c1C)S(=O)(=O)c1ccc(N)cc1 .
inactive

New cases:
Tell me the recorded outcome of this test for O=C(Nc1ccc([N+](=O)[O-])cc1)Nc1ccc([N+](=O)[O-])cc1 .
inactive

Tell me the recorded outcome of this test for Cc1ccc(S(=O)(=O)NC2CCCCC2)cc1 .
inactive

Tell me the recorded outcome of this test for CCCOC(=O)c1ccc(C(=O)OCCC)nc1 .
active

Tell me the recorded outcome of this test for O=c1[nH]c2ccc(S(=O)CCN3CCC(Cc4ccc(F)cc4)CC3)cc2o1 (stereo unspecified) .
inactive

Tell me the recorded outcome of this test for O=C(N/N=C/c1ccc([N+](=O)[O-])o1)c1ccc(O)cc1 .
inactive

Tell me the recorded outcome of this test for O=C(CS)OCCOC(=O)CS .
inactive

Tell me the recorded outcome of this test for CCCCC(CC)CNCC(CC)CCCC (stereo unspecified) .
inactive

Tell me the recorded outcome of this test for CCN(CC)CCNC(=O)c1ccc(NC(C)=O)cc1 .
inactive

Tell me the recorded outcome of this test for NCC1CCCC(CN)C1 (stereo unspecified) .
inactive

Tell me the recorded outcome of this test for CC(=O)Nc1ccc(N)cc1 .
inactive

Tell me the recorded outcome of this test for CCOC(=O)CC(=O)C(=O)OCC .
inactive

Tell me the recorded outcome of this test for CCCCCCCCCCOS(=O)(=O)O .
inactive

Tell me the recorded outcome of this test for C[Si](NC1CCCCC1)(NC1CCCCC1)NC1CCCCC1 .
inactive

Tell me the recorded outcome of this test for CCCCCCCCCCCC[N+](C)(C)CC(=O)[O-] .
inactive

Tell me the recorded outcome of this test for CCCCC/C(=C\c1ccccc1)CO .
inactive

Tell me the recorded outcome of this test for CCC(C)=O .
inactive

Tell me the recorded outcome of this test for CCCOCCOCCO .
inactive

Tell me the recorded outcome of this test for CC(C)(C)CC(C)(C)c1ccc(OCCO)cc1 .
inactive

Tell me the recorded outcome of this test for O=C(OCCOCCO)c1ccccc1Nc1cccc(C(F)(F)F)c1 .
inactive

Tell me the recorded outcome of this test for CC1=NN(c2ccc(C(=O)O)cc2)C(=O)C1 .
active

Each recorded value in this set is attributed to PubChem BioAssay (Tox21).
